Source of measurements: ChEMBL document CHEMBL2390923

# Test system: Radical scavenging activity
# Test: Antioxidant activity assessed as DPPH radical scavenging activity after 30 mins
# Type: functional
# Parameters: concentration or dose not given beside the values
Bucketed by reported inhibition, buckets being lowest: < 20%; middle: ≥ 20% and < 40%; highest: ≥ 40%

Known results for molecules:
>>> group("CCC12C=CC(O1)C(C(=O)c1ccccc1)C2c1cccc(F)c1 (stereo unspecified)")
"middle"
>>> group("CCC12C=CC(O1)C(C(=O)c1ccccc1)C2c1ccc(C#N)cc1 (stereo unspecified)")
"highest"
>>> group("CCC12C=CC(O1)C(C(=O)c1cccc(Br)c1)C2c1ccccc1 (stereo unspecified)")
"middle"

Could you now look at the following molecule, please?
For CCC12C=CC(O1)C(C(=O)c1ccccc1)C2c1ccccc1F (stereo unspecified) , which inhibition bin applies? lowest
